Provide the recorded Ratio Ki for the entries that follow.
Organism: Homo sapiens
Assay: Selectivity ratio of Ki for PI3Kbeta (unknown origin) to Ki for PI3Kgamma (unknown origin)
Answers are plain numbers.

- smiles.str: "COc1cc(-c2ccc3c(n2)CN(c2cnn(CCC#N)c2)C3=O)cnc1OC"
  Ratio Ki: 10
- smiles.str: "COc1cc(-c2ccc3c(n2)CN(c2cn[nH]c2)C3=O)cnc1OC"
  Ratio Ki: 32
- smiles.str: "COc1cc(-c2ccc3c(n2)CN(c2cnn(C)c2)C3=O)cnc1OC"
  Ratio Ki: 9
- smiles.str: "COc1cc(-c2ccc3c(n2)C(C)(C)N(c2cnn(CC(F)(F)F)c2)C3=O)cnc1OC"
  Ratio Ki: 12

Required: Ratio Ki, one value per compound below.
1. COc1cc(-c2ccc3c(c2)CN(c2cccc(CC#N)c2)C3=O)cnc1OC
2. CCn1cc(N2Cc3nc(-c4cnc(OC)c(OC)c4)ccc3C2=O)cn1
3. C#CCn1cc(N2Cc3nc(-c4cnc(OC)c(OC)c4)ccc3C2=O)cn1

Outgoing:
1: 11; 2: 39; 3: 25

###

Provide the recorded pKi for the entries that follow.
Target: Phosphatidylinositol 4,5-bisphosphate 3-kinase catalytic subunit gamma isoform (Homo sapiens, UniProt P48736)
Sequence (P48736 whole entry, canonical isoform): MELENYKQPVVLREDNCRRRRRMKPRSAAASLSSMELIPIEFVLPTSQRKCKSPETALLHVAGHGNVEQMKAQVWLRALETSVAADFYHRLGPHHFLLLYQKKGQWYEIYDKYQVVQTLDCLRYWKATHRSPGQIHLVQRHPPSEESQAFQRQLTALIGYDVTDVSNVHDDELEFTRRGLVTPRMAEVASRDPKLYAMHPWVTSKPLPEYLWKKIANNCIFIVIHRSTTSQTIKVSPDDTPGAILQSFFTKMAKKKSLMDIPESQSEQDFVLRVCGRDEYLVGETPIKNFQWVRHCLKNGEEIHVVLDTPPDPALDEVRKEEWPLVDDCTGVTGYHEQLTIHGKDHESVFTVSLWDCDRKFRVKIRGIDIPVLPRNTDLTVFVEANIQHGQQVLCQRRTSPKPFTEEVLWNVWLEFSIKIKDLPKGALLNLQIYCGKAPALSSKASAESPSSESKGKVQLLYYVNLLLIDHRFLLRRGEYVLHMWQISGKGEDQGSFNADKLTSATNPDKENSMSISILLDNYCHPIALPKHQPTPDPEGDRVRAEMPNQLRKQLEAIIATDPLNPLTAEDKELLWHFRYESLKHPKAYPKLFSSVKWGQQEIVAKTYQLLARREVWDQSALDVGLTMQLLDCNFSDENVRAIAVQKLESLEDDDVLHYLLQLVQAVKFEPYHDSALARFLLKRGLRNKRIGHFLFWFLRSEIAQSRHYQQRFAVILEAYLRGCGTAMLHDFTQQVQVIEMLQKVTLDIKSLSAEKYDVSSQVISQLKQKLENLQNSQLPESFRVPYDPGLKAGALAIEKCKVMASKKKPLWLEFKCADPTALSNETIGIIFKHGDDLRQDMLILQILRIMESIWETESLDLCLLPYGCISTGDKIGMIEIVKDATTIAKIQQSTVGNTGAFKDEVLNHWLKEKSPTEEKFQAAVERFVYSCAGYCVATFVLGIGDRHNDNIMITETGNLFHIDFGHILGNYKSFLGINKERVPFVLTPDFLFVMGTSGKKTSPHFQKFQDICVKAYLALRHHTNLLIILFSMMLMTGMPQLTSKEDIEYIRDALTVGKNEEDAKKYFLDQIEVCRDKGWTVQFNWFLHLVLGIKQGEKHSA
Experiment: Inhibition of PI3Kgamma (unknown origin) using PIP2 as substrate after 15 mins in presence of [33P-ATP] by liquid scintillation counting method
Answers are plain numbers, as −log10 of the molar value.

- smiles.str: "COc1cc(-c2ccc3c(n2)CN(c2cnn(CCC#N)c2)C3=O)cnc1OC"
  pKi: 7.70
- smiles.str: "COc1cc(-c2ccc3c(c2)CN(c2cccc(CC#N)c2)C3=O)cnc1OC"
  pKi: 7.46
- smiles.str: "COc1cc(-c2ccc3c(n2)CN(c2cnn(CC(F)F)c2)C3=O)cnc1OC"
  pKi: 8.05
- smiles.str: "COc1cc(-c2ccc3c(n2)CN(c2cnn(C(C)(C)C#N)c2)C3=O)cnc1OC"
  pKi: 7.55

Required: pKi, one value per compound below.
1. CCn1cc(N2Cc3nc(-c4cnc(OC)c(OC)c4)ccc3C2=O)cn1
2. COc1ccc(-c2ccc3c(c2)CN(c2cccc(CC#N)c2)C3=O)cc1OC
3. C#CCn1cc(N2Cc3nc(-c4cnc(OC)c(OC)c4)ccc3C2=O)cn1

Outgoing:
8.10
6.80
8.05

Required: pKi, one value per compound below.
1. COc1cc(-c2ccc3c(c2)CN(c2cnn(CC#N)c2)C3=O)cnc1OC
2. COc1cc(-c2ccc3c(n2)C(C)(C)N(c2cnn(CC(F)(F)F)c2)C3=O)cnc1OC

Outgoing:
1: 8.22; 2: 7.96

The recorded pKi for entry COc1cc(-c2ccc3c(n2)CN(c2cnn(CC(F)(F)F)c2)C3=O)cnc1OC equals 8.40

###

System: MDR1
Experiment: Efflux ratio of permeability from basolateral to apical over apical to basolateral side in MDCK cells harboring MDR1
Type: ADME, cell-based, Canis lupus familiaris
Conditions: dog
endpoint.label: efflux ratio
One number for each entry.

The recorded efflux ratio for entry COc1cc(-c2ccc3c(n2)CN(c2cnn(C)c2)C3=O)cnc1OC equals 2.5

###

Experiment: Clearance in iv dosed rat
Format: ADME, organism-based
Details: in vivo
endpoint.label: clearance (mL/min/kg)
Answers are plain numbers, in mL/min/kg.

- smiles.str: "COc1ccc(-c2ccc3c(c2)CN(c2cccc(CC#N)c2)C3=O)cc1OC"
  quantitative.readout: 116

Required: clearance, one value per compound below.
1. COc1cc(-c2ccc3c(c2)CN(c2cccc(CC#N)c2)C3=O)cnc1OC
2. COc1cc(-c2ccc3c(n2)C(C)(C)N(c2cnn(CC(F)(F)F)c2)C3=O)cnc1OC
3. COc1cc(-c2ccc3c(c2)CN(c2cnn(CC#N)c2)C3=O)cnc1OC

Outgoing:
1: 160; 2: 6.3; 3: 56
